B1: MLL5 (parent)
chain: TYLCERCQPRNLDKERAVLLQRRK

# Variants of: B1
# TEST DESCRIPTION: protein stability index of a GFP-peptide fusion (GPS, HEK-293T) (PSI 1-6); higher = more stable;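 also: lentivirally expressed fusions sorted by FACS into six bins by GFP to DsRed ratio, PSI derived from sequencing read proportions per bin multiplied by bin number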
# APPLIED CONDITIONS: c terminus: a fixed tail appended
Response key: MET means protein stability index >= 2; NOT MET means protein stability index < 2.

Form field: protein stability index at least 2? Entry: "L19K"
MET

Form field: protein stability index at least 2? Entry: "E5F"
NOT MET

Form field: protein stability index at least 2? Entry: "R6L"
NOT MET

Form field: protein stability index at least 2? Entry: "R23D"
NOT MET

Form field: protein stability index at least 2? Entry: "R22I"
MET

Form field: protein stability index at least 2? Entry: "R6K"
NOT MET

Form field: protein stability index at least 2? Entry: "Y2E"
MET

Form field: protein stability index at least 2? Entry: "K14V"
MET

Form field: protein stability index at least 2? Entry: "T1F"
NOT MET

Form field: protein stability index at least 2? Entry: "R6S"
MET

Form field: protein stability index at least 2? Entry: "T1Y"
MET

Form field: protein stability index at least 2? Entry: "C7R"
MET

Form field: protein stability index at least 2? Entry: "Q8Y"
NOT MET

Form field: protein stability index at least 2? Entry: "C4D"
MET

Form field: protein stability index at least 2? Entry: "R22L"
NOT MET

Form field: protein stability index at least 2? Entry: "P9R"
MET

Form field: protein stability index at least 2? Entry: "T1V"
NOT MET

Form field: protein stability index at least 2? Entry: "T1H"
MET

Form field: protein stability index at least 2? Entry: "C7P"
MET

Form field: protein stability index at least 2? Entry: "L20P"
MET

Form field: protein stability index at least 2? Entry: "E15T"
MET

Form field: protein stability index at least 2? Entry: "R23G"
MET

Form field: protein stability index at least 2? Entry: "C7V"
MET

Form field: protein stability index at least 2? Entry: "A17W"
MET

Form field: protein stability index at least 2? Entry: "D13N"
MET

Form field: protein stability index at least 2? Entry: "L19G"
MET

Form field: protein stability index at least 2? Entry: "E15C"
NOT MET

Form field: protein stability index at least 2? Entry: "L3A"
MET

Form field: protein stability index at least 2? Entry: "L12G"
MET

Form field: protein stability index at least 2? Entry: "Y2W"
MET

Form field: protein stability index at least 2? Entry: "E5G"
MET

Form field: protein stability index at least 2? Entry: "L20E"
MET

Form field: protein stability index at least 2? Entry: "A17K"
MET

Form field: protein stability index at least 2? Entry: "L3H"
MET

Form field: protein stability index at least 2? Entry: "L12V"
MET

Form field: protein stability index at least 2? Entry: "R6N"
MET

Form field: protein stability index at least 2? Entry: "P9M"
MET

Form field: protein stability index at least 2? Entry: "Q8P"
MET

Form field: protein stability index at least 2? Entry: "R10L"
NOT MET

Form field: protein stability index at least 2? Entry: "K24W"
MET

Form field: protein stability index at least 2? Entry: "P9T"
MET

Form field: protein stability index at least 2? Entry: "L3N"
MET

Form field: protein stability index at least 2? Entry: "R22M"
MET

Form field: protein stability index at least 2? Entry: "R23S"
MET

Form field: protein stability index at least 2? Entry: "R10F"
MET

Form field: protein stability index at least 2? Entry: "P9A"
NOT MET

Form field: protein stability index at least 2? Entry: "R16A"
MET

Form field: protein stability index at least 2? Entry: "E5N"
NOT MET

Form field: protein stability index at least 2? Entry: "C7F"
MET

Form field: protein stability index at least 2? Entry: "C4G"
MET

Form field: protein stability index at least 2? Entry: "R10A"
MET

Form field: protein stability index at least 2? Entry: "T1W"
MET

From: the supplement of paper PMC10567573
